- Tested on: SH-SY5Y
- ASSAY_PROTOCOL: Anticancer activity against human SH-SY5Y cells assessed as cell growth inhibition measured upto 72 hrs by MTS assay
- Type: functional, cell-based
READOUT: IC50 (µM)

Cc1cccc(/C=N/NC(=O)Cn2nc(N3CCN(c4ccc(Cl)cc4)CC3)ccc2=O)c1	23.2

---

- ASSAYED_SYSTEM: Hepatocyte growth factor receptor (Homo sapiens)
- ASSAY_PROTOCOL: Inhibition of human recombinant c-MET in presence of ATP by HTRF assay
pIC50: −log10 of the molar value.
Reported values of pIC50 for individual entries
READOUT: pIC50

Cn1cc(-c2ccc(=O)n(CC3CN(c4ncc(OCC5CCNCC5)cn4)CCO3)n2)cn1 (configuration not stated)	7.72
O=c1ccc(-c2cccnc2)nn1CC1CN(c2ncc(-c3cnn(C4CCNCC4)c3)cn2)CCO1 (configuration not stated)	7.46

---

Reported values of IC50 for individual entries
- ASSAYED_SYSTEM: Poly [ADP-ribose] polymerase 1 (Homo sapiens, UniProt P09874)
- Sequence (P09874 whole entry): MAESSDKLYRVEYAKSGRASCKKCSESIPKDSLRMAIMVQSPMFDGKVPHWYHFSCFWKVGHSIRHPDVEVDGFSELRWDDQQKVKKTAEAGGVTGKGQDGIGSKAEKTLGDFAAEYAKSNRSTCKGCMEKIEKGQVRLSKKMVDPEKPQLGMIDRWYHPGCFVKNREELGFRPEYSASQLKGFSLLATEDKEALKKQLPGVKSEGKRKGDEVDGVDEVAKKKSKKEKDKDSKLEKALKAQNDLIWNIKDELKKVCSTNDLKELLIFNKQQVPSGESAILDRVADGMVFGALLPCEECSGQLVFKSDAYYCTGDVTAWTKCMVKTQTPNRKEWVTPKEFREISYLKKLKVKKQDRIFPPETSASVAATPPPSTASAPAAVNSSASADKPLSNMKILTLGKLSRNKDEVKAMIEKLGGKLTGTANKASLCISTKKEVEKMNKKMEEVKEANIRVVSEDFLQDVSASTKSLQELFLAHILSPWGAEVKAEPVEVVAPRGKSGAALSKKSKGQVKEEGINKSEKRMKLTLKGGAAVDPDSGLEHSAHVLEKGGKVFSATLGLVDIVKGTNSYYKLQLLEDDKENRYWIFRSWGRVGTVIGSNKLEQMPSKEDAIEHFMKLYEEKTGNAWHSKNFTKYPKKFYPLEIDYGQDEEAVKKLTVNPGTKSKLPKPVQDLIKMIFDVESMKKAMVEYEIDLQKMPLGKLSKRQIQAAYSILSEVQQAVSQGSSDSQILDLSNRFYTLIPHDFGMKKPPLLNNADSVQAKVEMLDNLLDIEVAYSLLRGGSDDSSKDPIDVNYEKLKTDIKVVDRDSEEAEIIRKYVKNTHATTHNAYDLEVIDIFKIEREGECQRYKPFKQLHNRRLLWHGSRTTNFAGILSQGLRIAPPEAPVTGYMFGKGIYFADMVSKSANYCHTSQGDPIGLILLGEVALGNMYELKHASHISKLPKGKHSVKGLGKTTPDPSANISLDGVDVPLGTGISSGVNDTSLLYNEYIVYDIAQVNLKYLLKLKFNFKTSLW
- ASSAY_PROTOCOL: Inhibition of PARP1 (unknown origin) by colorimetric assay
READOUT: IC50 (µM)

O=C(/C=C/c1ccc(CCCCCCc2n[nH]c(=O)c3cc(F)ccc23)cc1)NO	0.007
O=C(c1ccc(Cc2n[nH]c(=O)c3cccnc23)cc1)N1CCCC1	0.0367

---

- ASSAY_PROTOCOL: Cytotoxicity against human CEM cells assessed as cell growth inhibition measured after 48 to 72 hrs by hoechst and PI staining based analysis
- Assay type: toxicity
- REPORTED_CONDITIONS: CCRF-CEM cells, time 48-72 hrs
READOUT: CC50 (nM)

O=c1c(Cl)c(Cl)cnn1-c1ccc(Cl)c(C(F)(F)F)c1	330

---

- System: MCF-12A
- ASSAY_PROTOCOL: Antiproliferative activity against human MCF-12A cells assessed as cell growth inhibition
- Assay type: functional, cell-based
pIC50: −log10 of the molar value.
Reported values of pIC50 for individual entries
READOUT: pIC50

Cc1cccc(NC(=S)NNC(=O)c2nnc3ccc(C)cc3c2N)c1	4.31
Cc1ccc2nnc(C(=O)NNC(N)=S)c(N)c2c1	4.19

---

- Test system: A-375
- ASSAY_PROTOCOL: Cytotoxicity against human A-375 cells assessed as cell growth inhibition
- Format: functional, cell-based
READOUT: IC50 (nM)

O=C(NC(Cc1c[nH]c2ccccc12)C1C(=O)N=C2C=CC=NN21)c1ccccc1 (stereo unspecified)	14

---

Reported values of IC50 for individual entries
- ASSAYED_SYSTEM: Poly [ADP-ribose] polymerase 1 (Homo sapiens, UniProt P09874)
- ASSAY_PROTOCOL: Displacement of [125I]KX1 from PARP1 in human OVCAR-8 cells incubated for 1 hr by wizard gamma counter analysis
- Type: cell-based
READOUT: IC50

COC1CCCN(C(=O)c2cc(Cc3n[nH]c(=O)c4ccccc34)ccc2F)CC1 (centres undefined)	4.7 nM
COC1CCN(C(=O)c2cc(Cc3n[nH]c(=O)c4ccccc34)ccc2F)C1 (centres undefined)	4.2 nM
COC1CN(C(=O)c2cc(Cc3n[nH]c(=O)c4ccccc34)ccc2F)C1	8.2 nM
COC1CCN(C(=O)c2cc(Cc3n[nH]c(=O)c4ccccc34)ccc2F)CC1	2.8 nM

---

- ASSAY_PROTOCOL: Inhibition of tyrosine kinase (unknown origin)
- Set-up: species or system Homo sapiens
Reported values of IC50 for individual entries
READOUT: IC50

Cc1ccc2nnc(C(=O)NNC(N)=S)c(N)c2c1	340 nM
Cc1cccc(NC(=S)NNC(=O)c2nnc3ccc(C)cc3c2N)c1	550 nM
CC1=Nc2c(nnc3ccc(C)cc23)C(=O)NN1	220 nM

---

- Test system: MDA-MB-468
- ASSAY_PROTOCOL: Cytotoxicity against human MDA-MB-468 cells assessed as cell growth reduction measured after 48 hrs by MTT assay
- Assay type: functional, cell-based
- REPORTED_CONDITIONS: MDA-MB-468, 48 h
pIC50: −log10 of the molar value.
READOUT: pIC50

Cc1n[nH]c(=S)cc1Cc1cc2cc(Cl)ccc2o1	4.94
Cc1n[nH]c(=O)cc1Cc1cc2cc(Cl)ccc2o1	5.05
Cc1n[nH]c(=O)cc1Cc1cc2cc(Cl)cc(Br)c2o1	5.51

---

- System: P815
- ASSAY_PROTOCOL: Cytotoxicity against mouse P815 cells assessed as cell growth inhibition measured after 48 hrs by MTT assay
- Format: functional, cell-based
- REPORTED_CONDITIONS: P815, 48 h
pIC50: −log10 of the molar value.
READOUT: pIC50

Cc1n[nH]c(=O)cc1Cc1cc2cc(C(C)C)ccc2o1	4.46
COc1ccc2oc(Cc3cc(=O)[nH]nc3C)cc2c1	4.46
CCc1ccc2oc(Cc3cc(=O)[nH]nc3C)cc2c1	4.46
CCCOc1ccc2oc(Cc3cc(=O)[nH]nc3C)cc2c1	4.46
Cc1ccc2oc(Cc3cc(=O)[nH]nc3C)cc2c1	4.46
Cc1n[nH]c(=O)cc1Cc1cc2ccccc2o1	4.46

---

- ASSAYED_SYSTEM: Poly [ADP-ribose] polymerase 1 (Homo sapiens)
- ASSAY_PROTOCOL: Inhibition of PARP1 (unknown origin) incubated for 30 mins by ELISA assay
pIC50: −log10 of the molar value.
READOUT: pIC50

O=C(Nc1nc(-c2ccccc2)cs1)c1ccc(Cc2n[nH]c(=O)c3cccnc23)cc1	7.34

---

Reported values of IC50 for individual entries
- ASSAYED_SYSTEM: Vascular endothelial growth factor receptor 2 (Homo sapiens)
- Sequence (P35968 whole entry): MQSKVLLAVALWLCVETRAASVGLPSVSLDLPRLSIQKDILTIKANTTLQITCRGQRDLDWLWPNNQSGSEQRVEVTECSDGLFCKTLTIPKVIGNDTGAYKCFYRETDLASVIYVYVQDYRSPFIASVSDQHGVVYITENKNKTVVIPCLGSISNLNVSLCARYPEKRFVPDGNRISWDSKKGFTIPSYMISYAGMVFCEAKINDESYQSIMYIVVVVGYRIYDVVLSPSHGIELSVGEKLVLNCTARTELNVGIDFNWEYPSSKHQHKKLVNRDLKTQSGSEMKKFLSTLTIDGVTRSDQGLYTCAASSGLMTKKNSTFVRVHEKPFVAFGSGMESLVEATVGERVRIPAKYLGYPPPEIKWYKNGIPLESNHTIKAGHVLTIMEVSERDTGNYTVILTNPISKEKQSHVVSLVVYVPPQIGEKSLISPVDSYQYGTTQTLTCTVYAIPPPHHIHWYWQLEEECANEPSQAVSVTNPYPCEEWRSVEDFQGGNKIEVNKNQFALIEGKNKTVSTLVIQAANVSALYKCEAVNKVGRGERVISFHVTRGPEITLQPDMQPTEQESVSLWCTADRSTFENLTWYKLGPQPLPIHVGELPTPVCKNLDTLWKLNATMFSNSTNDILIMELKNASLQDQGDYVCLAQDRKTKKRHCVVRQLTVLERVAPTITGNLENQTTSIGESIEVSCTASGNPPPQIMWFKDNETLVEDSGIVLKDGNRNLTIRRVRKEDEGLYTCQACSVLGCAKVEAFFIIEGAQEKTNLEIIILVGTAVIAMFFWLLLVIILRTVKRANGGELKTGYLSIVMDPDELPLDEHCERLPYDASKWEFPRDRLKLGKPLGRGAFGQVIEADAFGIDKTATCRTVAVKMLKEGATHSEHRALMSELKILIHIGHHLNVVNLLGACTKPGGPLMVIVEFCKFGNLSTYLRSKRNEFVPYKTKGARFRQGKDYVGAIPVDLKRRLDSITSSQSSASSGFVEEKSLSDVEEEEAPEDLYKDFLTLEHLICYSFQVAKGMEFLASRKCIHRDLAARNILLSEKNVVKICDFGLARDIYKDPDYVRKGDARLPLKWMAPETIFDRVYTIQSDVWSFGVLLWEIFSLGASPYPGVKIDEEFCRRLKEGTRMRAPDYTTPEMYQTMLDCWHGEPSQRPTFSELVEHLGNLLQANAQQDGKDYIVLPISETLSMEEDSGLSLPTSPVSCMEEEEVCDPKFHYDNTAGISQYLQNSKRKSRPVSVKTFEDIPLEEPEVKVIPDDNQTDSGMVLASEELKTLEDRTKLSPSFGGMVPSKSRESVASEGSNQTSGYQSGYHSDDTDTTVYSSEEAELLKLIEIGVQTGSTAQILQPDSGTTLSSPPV
- ASSAY_PROTOCOL: Inhibition of VEGFR2 (unknown origin) using poly (Glu,Tyr) 4:1 as substrate measured after 5 mins in presence of ATP by ELISA method
READOUT: IC50 (nM)

O=C(NNc1nn2cnnc2c2ccccc12)Nc1ccccc1	310
O=C(NNc1nn2cnnc2c2ccccc12)NC1CCCCC1	110
S=C(NNc1nn2cnnc2c2ccccc12)Nc1ccccc1	910

---

- Tested on: MIA PaCa-2
- ASSAY_PROTOCOL: Antiproliferative activity against human MIA PaCa-2 cells assessed as cell growth inhibition by propidium iodide staining based fluorescence assay
- Type: functional
pIC50: −log10 of the molar value.
READOUT: pIC50

COc1nc2ccc(C)cc2cc1Cc1cc(-c2ccccc2)n[nH]c1=O	5.66

---

- Test system: KB
- ASSAY_PROTOCOL: Cytotoxicity against human KB cells assessed as cell growth inhibition
- Type: functional, cell-based
Reported values of IC50 for individual entries
READOUT: IC50 (µM)

O=c1c(CNc2ccccc2)cc(OS(=O)(=O)C(F)(F)F)nn1Cc1ccccc1	2.8
O=c1c(CNc2ccccc2)cc(-c2ccccc2CO)nn1Cc1ccccc1	2.3

---

- ASSAYED_SYSTEM: Vascular endothelial growth factor receptor 2 (Homo sapiens)
- ASSAY_PROTOCOL: Inhibition of VEGFR2 (unknown origin) using ULight-4E-BP1 peptide as substrate incubated for 1 hr in presence of ATP by fluorescence based analysis
READOUT: IC50 (nM)

CNC(=O)c1cc(Oc2ccc(NC(=O)c3nn(-c4ccc(Cl)cc4)cc(C)c3=O)cc2)ccn1	0.12

---

- System: MCF7
- ASSAY_PROTOCOL: Antiproliferative activity against human MCF7 cells assessed as cell growth inhibition incubated for 48 hrs by MTT assay
- Type: functional, cell-based
- REPORTED_CONDITIONS: MCF7, 48 h
pIC50: −log10 of the molar value.
READOUT: pIC50

COc1ccc(-c2cc(Cc3ccc(Cl)cc3)c(=O)[nH]n2)cc1	< 4.43
COc1ccc(-c2cc(Cc3ccccc3O)c(=O)[nH]n2)cc1	< 4.43

---

- ASSAYED_SYSTEM: Hepatocyte growth factor receptor (Homo sapiens, UniProt P08581)
- Sequence (P08581 whole entry): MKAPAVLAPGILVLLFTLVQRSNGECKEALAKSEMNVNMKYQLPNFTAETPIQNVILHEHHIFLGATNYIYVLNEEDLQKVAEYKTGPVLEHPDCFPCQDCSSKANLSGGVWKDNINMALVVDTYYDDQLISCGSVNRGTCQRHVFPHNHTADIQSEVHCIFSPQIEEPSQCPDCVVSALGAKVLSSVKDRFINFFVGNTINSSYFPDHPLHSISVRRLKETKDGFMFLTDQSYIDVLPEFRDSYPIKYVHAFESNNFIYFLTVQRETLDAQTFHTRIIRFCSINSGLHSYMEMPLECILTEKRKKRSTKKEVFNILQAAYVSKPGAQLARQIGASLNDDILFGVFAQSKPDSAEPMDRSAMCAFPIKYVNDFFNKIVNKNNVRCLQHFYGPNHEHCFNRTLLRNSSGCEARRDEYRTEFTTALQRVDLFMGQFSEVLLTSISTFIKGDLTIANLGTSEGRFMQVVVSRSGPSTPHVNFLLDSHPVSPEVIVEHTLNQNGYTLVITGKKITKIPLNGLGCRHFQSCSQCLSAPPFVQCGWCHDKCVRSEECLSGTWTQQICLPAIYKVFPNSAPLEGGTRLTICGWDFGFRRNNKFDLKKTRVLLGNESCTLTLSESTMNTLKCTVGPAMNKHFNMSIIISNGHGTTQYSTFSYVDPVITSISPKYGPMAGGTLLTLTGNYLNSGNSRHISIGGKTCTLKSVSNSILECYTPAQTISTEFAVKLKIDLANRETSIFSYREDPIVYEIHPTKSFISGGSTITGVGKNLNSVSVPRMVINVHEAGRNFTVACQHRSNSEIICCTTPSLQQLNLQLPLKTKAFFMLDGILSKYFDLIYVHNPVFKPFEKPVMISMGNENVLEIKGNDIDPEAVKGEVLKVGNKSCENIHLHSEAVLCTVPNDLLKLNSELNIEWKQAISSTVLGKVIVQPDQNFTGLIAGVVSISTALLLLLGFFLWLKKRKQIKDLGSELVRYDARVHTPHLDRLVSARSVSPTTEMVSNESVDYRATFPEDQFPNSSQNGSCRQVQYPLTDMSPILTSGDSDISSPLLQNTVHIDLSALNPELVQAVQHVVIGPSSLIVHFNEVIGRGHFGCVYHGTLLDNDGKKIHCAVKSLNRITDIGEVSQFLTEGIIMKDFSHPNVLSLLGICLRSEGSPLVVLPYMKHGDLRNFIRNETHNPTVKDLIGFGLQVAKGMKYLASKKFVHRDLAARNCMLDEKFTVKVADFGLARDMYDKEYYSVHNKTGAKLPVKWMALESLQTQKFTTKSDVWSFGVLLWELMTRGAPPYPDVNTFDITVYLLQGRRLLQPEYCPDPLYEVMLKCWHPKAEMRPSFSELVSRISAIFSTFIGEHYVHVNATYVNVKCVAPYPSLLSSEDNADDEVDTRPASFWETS
- ASSAY_PROTOCOL: Inhibition of c-Met (unknown origin) incubated for 20 to 30 mins in presence of [33P]-ATP by scintillation counter analysis
READOUT: IC50

O=C(O)c1ccccc1Nc1ccc2nnc(-c3ccncc3)n2n1	107 µM

---

- Test system: Hep 3B2
- ASSAY_PROTOCOL: Anticancer activity against human Hep3B cells assessed as cell growth inhibition measured upto 72 hrs by MTS assay
- Format: functional, cell-based
pIC50: −log10 of the molar value.
READOUT: pIC50

Cc1cccc(/C=N/NC(=O)Cn2nc(N3CCN(c4ccc(Cl)cc4)CC3)ccc2=O)c1	4.61

---

- System: TMD8
- ASSAY_PROTOCOL: Cytotoxicity against human TMD8 cells assessed as cell growth inhibition measured after 72 hrs by WST-1 assay
- Format: functional, cell-based
- REPORTED_CONDITIONS: TMD8, 72 h
READOUT: IC50

CC(C)Nc1ccc2nnc(-c3cc(-c4cnn(C5CCN(CCO)CC5)c4)cnc3N)n2n1	800 nM
